tested on: Fibroblast; test: Multiplex assay against human fibroblast; assay type: toxicity, cell-based; settings: 24 h, 10 µM, compound concentration 10 uM, replicate 2
Everything with Total Cell Count lower than 80 is not met; everything else, including exactly 80, is met.

- O=C1N/C(=N/c2ccccc2F)S/C1=C\c1ccc(C(=O)O)cc1: not met

Does CCCn1c(=O)c2[nH]c(-c3cnn(Cc4cccc(C(F)(F)F)c4)c3)nc2n(CC)c1=O have a reported Total Cell Count of at least 80?
met

Does C=C1/C(=C\C=C2/CCC[C@]3(C)[C@@H]([C@H](C)/C=C/[C@H](C)C(C)C)CC[C@@H]23)C[C@@H](O)C[C@@H]1O have a reported Total Cell Count of at least 80?
met

Does S=C(NCCCc1c[nH]cn1)NCCCN(Cc1ccc(Cl)c(Cl)c1)c1ccc(Br)cn1 have a reported Total Cell Count of at least 80?
not met

Does Cl.Oc1ccc2c3c1O[C@H]1c4[nH]c5c(c4C[C@@]4(O)[C@@H](C2)N(CC2CC2)CC[C@]314)C[C@@]1(O)[C@H]2Cc3ccc(O)c4c3[C@@]1(CCN2CC1CC1)[C@H]5O4 have a reported Total Cell Count of at least 80?
met

Does CN1CCN(C(=O)C(C)(C)c2ccc(C(=O)Nc3cn4cc(-c5cc(C(C)(C)C)cc(C(C)(C)C)c5)ccc4n3)cc2)CC1 have a reported Total Cell Count of at least 80?
not met

Does COCC(=O)NC/C=C/c1ccc2ncnc(Nc3ccc(Oc4ccc(C)nc4)c(C)c3)c2c1 have a reported Total Cell Count of at least 80?
not met

Does Cc1ccc(C(=O)Nc2cccc(C(F)(F)F)c2)cc1Nc1nc(-c2cccnc2)nc2c1cnn2C have a reported Total Cell Count of at least 80?
not met

Does O=C1NC(=O)C(c2cnc3ccccn23)=C1c1cn2c3c(cc(F)cc13)CN(C(=O)N1CCCCC1)CC2 have a reported Total Cell Count of at least 80?
not met

Does Cc1cn(-c2cc(NC(=O)c3ccc(C)c(Nc4nccc(-c5cccnc5)n4)c3)cc(C(F)(F)F)c2)cn1 have a reported Total Cell Count of at least 80?
met

Does CCOc1cc(C(=O)N2CCC(N3CCN(C)CC3)CC2)ccc1Nc1ncc2c(n1)N(C1CCCC1)c1ccccc1C(=O)N2C have a reported Total Cell Count of at least 80?
met

Does NC(=O)c1cccc(-c2cc(Nc3ccc(OC(F)(F)F)cc3)ncn2)c1 have a reported Total Cell Count of at least 80?
not met

Does CCc1cccc(CC)c1NC(=O)c1nn(C)c2c1CCc1cnc(Nc3ccc(N4CCN(C)CC4)cc3OC)nc1-2 have a reported Total Cell Count of at least 80?
met

###

test system: Fibroblast; assay: Multiplex assay against human fibroblast; assay type: toxicity, cell-based; conditions: 24 h, 1 µM, compound concentration 1 uM, replicate 2
Overview of reported Population Membrane Permeable-Phenotype (%) across a group of molecules:

- O=C(Cc1ccc(-c2ccc(OCCN3CCOCC3)cc2)cn1)NCc1ccccc1: 6%
- CN(C)C(=O)C(CCN1CCC(O)(c2ccc(Cl)cc2)CC1)(c1ccccc1)c1ccccc1.Cl [LOPERAMIDE HYDROCHLORIDE]: 16%
- CCOc1cc(C(=O)N2CCC(N3CCN(C)CC3)CC2)ccc1Nc1ncc2c(n1)N(C1CCCC1)c1ccccc1C(=O)N2C: 5%

Find Population Membrane Permeable-Phenotype (%) (Fibroblast) for the entry Cc1cc(C)c(S(=O)(=O)N(Cc2ccc(-c3cccc(S(C)(=O)=O)c3)cc2)Cc2ccc(C(F)(F)F)o2)c(C)c1
5%

Find Population Membrane Permeable-Phenotype (%) (Fibroblast) for the entry Cn1nc(C(F)(F)F)cc1-c1cnc(N2CCc3cc(S(=O)(=O)Nc4c(F)cc(Cl)cc4F)cc(N4CCCC4=O)c32)nc1
18%

Find Population Membrane Permeable-Phenotype (%) (Fibroblast) for the entry Cc1ccc2nc(NCCN)c3ncc(C)n3c2c1.O=C(O)C(F)(F)F.O=C(O)C(F)(F)F
0%

Find Population Membrane Permeable-Phenotype (%) (Fibroblast) for the entry CCCS(=O)(=O)Nc1ccc(F)c(C(=O)c2c[nH]c3ncc(Cl)cc23)c1F
13%

Find Population Membrane Permeable-Phenotype (%) (Fibroblast) for the entry CNc1cc(Oc2cc(C(=O)Nc3cc(N4CCN(C)CC4)cc(C(F)(F)F)c3)ccc2C)ncn1
13%

Find Population Membrane Permeable-Phenotype (%) (Fibroblast) for the entry Cc1cn(-c2cc(NC(=O)c3ccc(C)c(Nc4nccc(-c5cccnc5)n4)c3)cc(C(F)(F)F)c2)cn1
2%

Find Population Membrane Permeable-Phenotype (%) (Fibroblast) for the entry COc1cc(N2CCN(C)CC2)ccc1Nc1ncc2c(n1)N(C)c1ccccc1C(=O)N2C
6%

Find Population Membrane Permeable-Phenotype (%) (Fibroblast) for the entry Cc1ccc(C(=O)Nc2cccc(C(F)(F)F)c2)cc1Nc1nc(-c2cccnc2)nc2c1cnn2C
7%

Find Population Membrane Permeable-Phenotype (%) (Fibroblast) for the entry CN[C@@H]1C[C@H]2O[C@@](C)([C@@H]1OC)n1c3ccccc3c3c4c(c5c6ccccc6n2c5c31)C(=O)NC4
30%
